- Test system: Wolbachia pipientis
- assay_text: Anti-Wolbachia Cell-Based Screen
- Assay type: functional
- Parameters: scale not given: in the data most compounds retested in dose-response had high values
- applied_conditions: 5 µM
Screen size: about 48,000 compounds; about 13,000 (27%) showed an effect of 50% or more. This is one part of the list.
Can you tell me Percent Effect for the items I'm about to list?
Give your result in % as a bare value.

Entry under review: "COc1ccc(CN2CCc3ncnc(C4CC4)c3CC2)cc1.O=C(O)C(F)(F)F" . Reported Percent Effect?
110.6

Find the recorded Percent Effect belonging to "COc1ncc(C(=O)NCc2ccc(Br)cc2)cn1" and report it.
4.726

Recorded Percent Effect of "O=C1COC2(CCN(Cc3ccncc3)CC2)CN1CC1CC1" , please.
-5.616

I'd like to know its Percent Effect. The compound in question is "O=C(CCO)N1C[C@H]2CC[C@@H]1CN(C1Cc3ccccc3C1)C2"
7.309

Requested field: Percent Effect. Item: "O=C(O)C(F)(F)F.O=C(O)C(F)(F)F.c1ccc(CN2CCc3ncnc(C4CC4)c3CC2)nc1"
-2.713

Looking for the measured Percent Effect of CCCN1CC2(CCN(c3ccc(C(C)=O)cn3)CC2)CC1C(=O)O (centres undefined) , can you help?
10.16

Query (compound): O=S1(=O)NCC2(CCCN(Cc3ccccn3)C2)Oc2ncccc21 (centres undefined) ; field requested: Percent Effect
140.3

Can you look up the measured Percent Effect of CC(Nc1cccc(Oc2ccc(C#N)cn2)c1)C(=O)NC1CC1 (centres undefined) for me?
4.844

Would you kindly share the measured Percent Effect for "CS(=O)(=O)N[C@@H]1CN(Cc2ccc3ncccc3c2)C[C@H]1O" ?
100.1

Given "Cc1ncc(CN(C)CCO)c2cc(C(=O)c3ccc(Br)cc3)oc12.Cl" , state its recorded Percent Effect.
142.2

Suppose we examine the compound Cc1cc(C2CCCN(CC(=O)Nc3nc4c(s3)CCC4)C2)n[nH]1 (centres undefined) ; what Percent Effect value has been reported?
7.579

Give the measured Percent Effect of "O=C(NC1CCCCC1)c1ccc(Oc2ccc3nncn3n2)cc1" .
113.3

So what does the record say about Percent Effect for Fc1cccc(N2CCCC3(CN(Cc4cccnc4)CCO3)C2)c1.O=C(O)C(F)(F)F.O=C(O)C(F)(F)F.O=C(O)C(F)(F)F (centres undefined) ?
2.254

Recorded Percent Effect of "O=C(C1CC=CC1)N1CCC2(CC1)CN(Cc1ccccn1)CCO2" , please.
-14.52

Quick one: Percent Effect of "c1ccc(-c2nc3c(c(NCCn4ccnn4)n2)CCNCC3)nc1" ?
-1.189

What does the record list as Percent Effect for CCOc1cccc(C(C)NCc2ccc(OC)c(OC)c2OC)c1 (centres undefined) ?
2.292

For "Cc1cc(F)ccc1OC1(C(=O)O)CCN(Cc2ccncc2)CC1" , what is its reported Percent Effect?
7.519

Which measured Percent Effect value corresponds to "Cc1ncc(CNC(C)(C)CO)c2cc(C(=O)c3ccc(Br)cc3)oc12" ?
82.9

Consider the compound "Cc1ncsc1CCN(C)Cc1ccc(CO)o1" and give its measured Percent Effect.
-28.69

May I ask what Percent Effect has been recorded for Cc1nc(NC(=O)C(C)N2CCN(c3ccccc3F)CC2)sc1C (centres undefined) ?
2.631

Quick check: Percent Effect of "O[C@@H]1C[C@@H](c2nc(Cc3ccccc3)no2)N(CC2CC2)C1" ?
3.423

Requested read-out: Percent Effect. Entry: "O=C(O)C(F)(F)F.c1nc2c(c(C3CC3)n1)CCN(Cc1ccc3c(c1)OCO3)CC2"
-14.88

For Cc1ccc2ncnc(N3CCOCC3c3c(C)nn(C)c3C)c2c1 (centres undefined) , what is its reported Percent Effect?
-2.563

Recorded Percent Effect for "O=S1(=O)NCC2(CCN(Cc3ccncc3)CC2)Oc2ncccc21" , please?
130.7

// Percent Effect lookup, key: "Cc1oc(CN(C)C(=O)c2ccc(Br)cc2)cc1C(=O)O"
5.692

Query (compound): "O=C(c1ccn(-c2cccc(F)c2)n1)N1CCN(CC2CC2)CC1" ; field requested: Percent Effect
1.903

Bench note: what Percent Effect did CN(C)C(CNC(=O)c1cccc(-n2cnnn2)c1)c1ccccc1Cl (centres undefined) show?
-8.623

# input compound: "O=C(NC1CC1)c1cccc(Oc2ccc3nncn3n2)c1" ; wanted: its Percent Effect
135.1

Recorded Percent Effect for "c1cn(CCNc2nc(NC3CC3)nc3c2CCNCC3)nn1" , please?
-2.29

Fill blank: measured Percent Effect of the compound "O=C(CN1CCN(c2ccc3nncn3n2)CC1)NC1CCCC1" is ____.
0.9347

Quick check: Percent Effect of O=C(O)C(F)(F)F.O=C(O)C(F)(F)F.O=C(O)C(F)(F)F.c1cncc(CN2CCCC3(COCCN(c4cnccn4)C3)C2)c1 (centres undefined) ?
-4.353

Fill blank: measured Percent Effect of the compound CC1CN(C)CCN1C(=O)c1ccn(-c2cccc(Cl)c2)n1 (centres undefined) is ____.
-2.456

Param item = CC1CN(CC(=O)NC2CCCC2)CCN1c1ccc2nncn2n1 (centres undefined) ; retrieve measured Percent Effect.
1.075

Could you tell me which Percent Effect is on file for COc1ccc(CN2CCc3ncnc(C4CCOC4)c3CC2)cc1.O=C(O)C(F)(F)F (centres undefined) ?
-16.69

Please report the recorded Percent Effect for "Cc1ncc(CNCCO)c2cc(C(=O)c3ccc(Br)cc3)oc12.Cl" .
215.6

Please give the measured Percent Effect for this compound: O=C1C(N2CCOC3(CCCC3)C2)CCN1C1CC1 (centres undefined)
15.83

Sample Cc1nc(CN2CCCC(CCc3ccccc3C(F)(F)F)C2)no1 (centres undefined) — what was its Percent Effect?
-1.662

For the compound shown here, "O=C(Nc1cnc(Oc2ccccc2)nc1)C1CC1" , give the reported Percent Effect.
12.01

What value of Percent Effect has been reported for the following compound? "O=S(=O)(NCC1(O)CCOCC1)c1c(F)cccc1F"
-2.026

Entry CC(=O)N1CC(c2ncn(C(C)C)n2)c2cc(C(=O)NC(C)C)ccc21 (centres undefined) : reported Percent Effect = ?
-2.765

Can you share its Percent Effect? I mean this compound: CC(C)NC(=O)c1ccc2nnc(C3CCN(C(=O)NC(C)C)C3)n2c1 (centres undefined)
5.911

Please report the recorded Percent Effect for "CCC[C@@H]1CN(Cc2ccc(C(F)(F)F)nc2)C[C@H]1NS(C)(=O)=O" .
-0.637

Reported Percent Effect, compound COc1ccc(CCNC(=O)C2CCC(Cn3cnnn3)CC2)cc1 (centres undefined) : ____
-2.407

May I ask what Percent Effect has been recorded for COc1cccc(C(=O)NCC(O)c2cccs2)c1 (centres undefined) ?
-0.6339

====

- Tested on: Wolbachia pipientis
- assay_text: Anti-Wolbachia Cell-Based Screen
- Format: functional
- Set-up: scale not given: in the data most compounds retested in dose-response had high values
- applied_conditions: 5 µM
Among all 48,000 compounds or so, about 13,000 (27%) showed an effect of 50% or more. This is one part of the list.
Provide the reported Percent Effect of each item.
Give just the number in %; leave the unit off.

Requested field: Percent Effect. Item: "Cn1nc(C2CCN(C(=O)c3cccs3)CC2)c2cccnc21"
107.6

Which Percent Effect value belongs to COc1cc(C2CC(=O)c3c(O)cc(O)cc3O2)ccc1O (stereo not given) ?
4.847

Need Percent Effect, item c1ccc(-n2cc(CN3CCCC3Cn3cccn3)nn2)cc1 (stereo not given)
141.8

Could you tell me which Percent Effect is on file for COc1c(NC(=O)C(C)CCOc2ccccc2)c(C)nn1C (stereo not given) ?
-7.796

# Percent Effect lookup, item Cc1cnc(CN(C)C2CCN(CCc3cnn(C)c3)C2)o1 (stereo not given)
-1.466

// Percent Effect lookup, key: CC(C(=O)Nc1ccnn1C(C)C)N1CCCN(c2nccs2)CC1 (stereo not given)
10.48

I'd like to know its Percent Effect. The molecule in question is "CC(C)OCCN1CCC(Nc2ncc(Br)cn2)CC1"
82.04

Item under review: Cc1cnc(CN(C)C2CCN(Cc3nnc(C4CC4)o3)C2)o1 (stereo not given) . Reported Percent Effect?
131.1

What does the data say about its Percent Effect? Entry: COc1ccc(OCc2sc(C3(O)CCCNCC3)nc2C)cc1.Cl (stereo not given)
-5.149

Which Percent Effect is listed for O=C1N(CCC2CCCCC2)CCCC1(O)CNCCc1ccccc1 (stereo not given) ?
4.403

Please report the recorded Percent Effect for "CNC(=O)CN(C)c1cncc(OCc2ccccc2)n1" .
-7.002

So what does the record say about Percent Effect for "CSc1ccc(CNc2ccccc2CN2CCC(O)CC2)cc1" ?
-4.512

Need Percent Effect, item CN(Cc1noc(C2CC2)n1)C1CCN(Cc2ccncc2)C1 (stereo not given)
-0.4709

Which value of Percent Effect has been reported for CCN1CCCC1CN(CCN(C)C)S(=O)(=O)c1ccccc1C#N (stereo not given) in the records?
-13.86

So what does the record say about Percent Effect for "Cc1ccc2nc(CN(C)Cc3ccc(C)o3)cc(=O)n2c1" ?
4.444

Using the record for "CC(C)OCCN1CCN(C(=O)c2cc(-n3cccn3)ccn2)CC1" , report its Percent Effect.
-9.064

Which measured Percent Effect value corresponds to "CC(C)OCCN1CCC(Nc2ncccn2)CC1" ?
110.1

Please give the measured Percent Effect for this molecule: c1cnn(CC2CCCN2Cc2ccc(-n3cccn3)cc2)c1 (stereo not given)
123

Quick one: Percent Effect of "CC(C)c1noc(CCCC(=O)N2CCN(Cc3ccncc3)CC2)n1" ?
9.979

Quick one: Percent Effect for Cc1noc(C)c1CNC(C)c1ccc(S(=O)(=O)N(C)C)cc1 (stereo not given) ?
-12.9

# query: Percent Effect of entry NC(=O)CC1CCCN(c2cncc(SCc3ccccc3)n2)C1 (stereo not given)
107.6

Give the measured Percent Effect of "Cc1cc(C)nc(NC2CCN(CCOC(C)C)CC2)n1" .
107

May I ask what Percent Effect has been recorded for "COC1CCN(C(=O)Cc2csc(-c3ncccn3)n2)CC1" ?
-12.9

Report Percent Effect for "CC(C)OCCN1CCC(N2CCN(C)C2=O)CC1" please.
7.095

Quick check: Percent Effect of "Cn1cc(Cl)cc1C(=O)N1CCCN(Cc2cccs2)CC1" ?
6.765

Percent Effect for CCCc1nc(CN2CCCC2Cn2cccn2)cs1 (stereo not given) ?
-10.42

Recorded Percent Effect of "Cl.Cn1nc(C2CCN(C(=O)Cc3cccc(F)c3)CC2)c2cccnc21" , please.
-4.432

Could you share which Percent Effect value was measured for "N#Cc1cccnc1N1CCN(C(=O)c2cccs2)CC1" ?
-4.28

Which Percent Effect is reported for this molecule? Cc1noc(-c2ccc(N3CCCC(C(=O)O)C3)nc2)n1 (stereo not given)
-4.979

Sample Cc1ccccc1CSc1nc(N)cc(N2CCCC(O)C2)n1 (stereo not given) — what was its Percent Effect?
-23.5

So what does the record say about Percent Effect for "COc1ccc(OC)c(CN(C)c2ncc(S(N)(=O)=O)s2)c1" ?
-0.04358

// query Percent Effect value for entry CCC(C)(NCC(=O)NC(=O)NC)c1nc(C)cs1 (stereo not given)
-8.328

What does the data say about its Percent Effect? Entry: "CC(C)(C)c1ncc(CNc2ccccc2Cn2cncn2)s1"
1.316

Item under review: CCCC(=O)NC1CCCN(c2cncc(Br)c2)C1 (stereo not given) . Reported Percent Effect?
2.547

I'd like to know its Percent Effect. The molecule in question is "c1cnc(N2C[C@H]3CCC[C@@H](CN4CCCC4)[C@H]3C2)nc1"
-23.6

Which Percent Effect value is on record for "CC(=O)c1cc(CN2C[C@@H](C(=O)O)[C@H](c3cccnc3)C2)cs1" ?
-13.15

Recorded Percent Effect for "CNC(=O)CN(C)c1cncc(OCC(C)C)n1" , please?
-2.547

Which value of Percent Effect has been reported for "CC(C)(C)NC(=O)c1cnc2n1CCCC2" in the records?
-4.757

Consider the molecule "Cc1c(NC(=O)NC2CCCC2)cccc1C(=O)N1CCSCC1" and give its measured Percent Effect.
1.099

Sample CC(C)COc1cncc(N2CCCC(CC(N)=O)C2)n1 (stereo not given) — what was its Percent Effect?
119.8

Using the record for "Cc1cccc(C(=O)N2CCN(CCOC(C)C)CC2)n1" , report its Percent Effect.
2.598

Return reported Percent Effect; argument: "COCCC(=O)N1CCC(Nc2ncc(Br)cn2)CC1"
-2.915

Fill blank: measured Percent Effect of the molecule "CC(C)OC(=O)N1CCC(Nc2ncc(Br)cn2)CC1" is ____.
-1.588

Percent Effect lookup needed for "COc1ccc(C(=O)N2CC(c3ccncc3)C2)c(OC)c1OC" , thanks.
-3.767

Param item = "Cc1nc(C)c(COc2ccc(N(C)S(C)(=O)=O)cc2)s1" ; retrieve measured Percent Effect.
-26.99

What Percent Effect value was documented for this molecule, COCCNC(=O)C1(CCCc2cccnc2)CCCN1C (stereo not given) ?
112.4

Name the recorded Percent Effect for "O=C(NCCNc1ncccn1)N(Cc1ccc(F)cc1F)C1CC1" .
-5.455

Reported Percent Effect for "CCN(Cc1cc(Cl)ccc1OC)Cc1cc(C)nn1C" : what is it?
-10.03

Which Percent Effect value belongs to "Cl.Cn1nc(C2CCN(C(=O)Cc3ccsc3)CC2)c2cccnc21" ?
115.7

Could you tell me which Percent Effect is on file for CNC(=O)C1(CCCc2cccnc2)CCCCN1 (stereo not given) ?
-7.533
